- assayed_system: human IDO1 (Homo sapiens, UniProt P14902)
- Sequence (P14902 whole entry): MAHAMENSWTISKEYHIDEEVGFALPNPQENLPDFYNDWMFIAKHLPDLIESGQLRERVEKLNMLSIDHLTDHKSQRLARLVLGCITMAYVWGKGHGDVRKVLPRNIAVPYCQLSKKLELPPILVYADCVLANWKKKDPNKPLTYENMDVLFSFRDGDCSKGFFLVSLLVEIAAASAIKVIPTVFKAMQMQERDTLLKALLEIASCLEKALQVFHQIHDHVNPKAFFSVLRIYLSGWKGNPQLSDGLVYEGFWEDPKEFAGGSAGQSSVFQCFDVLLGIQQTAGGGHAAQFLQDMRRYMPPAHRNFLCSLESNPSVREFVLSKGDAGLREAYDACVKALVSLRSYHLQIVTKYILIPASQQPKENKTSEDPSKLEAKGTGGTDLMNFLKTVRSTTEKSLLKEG
- procedure_text: IDO inhibition assay in HEK293 cells stably expressing human IDO1 (kynurenine production, Ehrlich reagent, absorbance 490 nm)
- condition_details: 20 hours incubation with compound, 500 nM reference standard = 100% inhibition, read-out: IDO1 HEK Human IC50
- Experimental: HEK293 cells were transfected with a pCDNA-based mammalian expression vector harboring human IDO1 cDNA (NM 002164.2) by electroporation. They were cultured in medium (DMEM with 10% FBS) containing 1 mg/ml G418 for two weeks. […] The compound treatments were stopped by adding trichloroacetic acid (Sigma-Aldrich) to a final concentration at 0.2%. […] The absorbance at 490 nm was measured on Envision plate reader. […]
Counter-ions that a name gives are not always drawn.
readout_label: IC50 (nM)

Worked set:
>>> df
                                   compound                            assayed_system  value_observed
0  CCCN(Cc1ccc(F)cc1)c1cc(NC(=O)Nc2ccc(Cl)cc2F)cc(-c2ccccc2-c2noc(=O)[nH]2)n1 [Example 13]  human IDO1 (Homo sapiens, UniProt P14902)            13.2
1  CCOc1ccc(NC(=O)Nc2cc(-c3ccccc3-c3nnn[nH]3)nc(N(CC)Cc3ccccc3)c2)cc1 [Example 279]  human IDO1 (Homo sapiens, UniProt P14902)             537
2  CC(C)CN(Cc1ccccc1)c1cc(Nc2ncccc2F)cc(-c2ccccc2-c2nnn[nH]2)n1 [Example 178]  human IDO1 (Homo sapiens, UniProt P14902)            58.4
3  CCCN(CC1CC1)c1nc(NC(=O)Nc2ccc(C)cc2)cc(-c2ccccc2-c2nnn[nH]2)n1 [Example 66, TFA]  human IDO1 (Homo sapiens, UniProt P14902)             440
4  Cc1cc(F)ccc1Nc1cc(-c2ccccc2-c2nnn[nH]2)nc(N(Cc2ccccc2)CC(C)C)c1 [Example 175]  human IDO1 (Homo sapiens, UniProt P14902)            54.9
5  CCN(Cc1ccccc1)c1cc(NC(=O)Cc2cc(C)no2)cc(-c2ccccc2-c2nnn[nH]2)n1 [Example 283]  human IDO1 (Homo sapiens, UniProt P14902)            1150
6  CCC(CC(=O)O)c1cc(Nc2ccc(Cl)cc2)cc(N(Cc2ccccc2)C(C)C)n1 (stereo not drawn) [Example 241]  human IDO1 (Homo sapiens, UniProt P14902)            21.3
7  Cc1ccc(CC(=O)Nc2cc(-c3ccccc3-c3nnn[nH]3)nc(N3CCCCCC3)c2)cc1 [Example 127]  human IDO1 (Homo sapiens, UniProt P14902)            1050
8  CCCN(CC1CC1)c1cc(Nc2ncc(C(F)(F)F)cn2)cc(-c2ccccc2-c2nnn[nH]2)n1 [Example 84, TFA]  human IDO1 (Homo sapiens, UniProt P14902)             373
9  COc1cc(F)cc(Nc2cc(-c3ccccc3-c3nnn[nH]3)nc(N(Cc3ccccc3)CC(C)C)c2)c1 [Example 197]  human IDO1 (Homo sapiens, UniProt P14902)             5.8

[P] CCCN(Cc1ccccc1)c1cc(NC(=O)Cc2ccc(C)cc2)cc(-c2ccccc2C(=O)NS(=O)(=O)N2CCN(C)CC2)n1 [Example 25]
[Q] CC(C)CN(Cc1ccccc1)c1cc(Nc2cnc(Cl)nc2)cc(-c2ccccc2-c2nnn[nH]2)n1 [Example 164]
[R] CCCN(Cc1ccccc1)c1cc(NC(=O)Cc2ccc(C)cc2)cc(-c2ccccc2-c2nc(=O)o[nH]2)n1 [Example 28]
Sort (3 compounds) by IC50: min first. Record the ranking as a list of labels in the requested order. Q, R, P
(Q: 7.9 nM, R: 80.1 nM, P: 2910 nM)

[I] CC(C)CN(Cc1ccccc1)c1cc(Nc2ccccc2F)cc(-c2ccccc2-c2nnn[nH]2)n1 [Example 179]
[II] COCCN(c1cc(NC(=O)Nc2ccc(F)cc2)cc(-c2ccccc2-c2nnn[nH]2)n1)C1CCC(F)(F)CC1 [Example 114]
[III] CCCN(Cc1ccccc1)c1cc(NC(=O)Cc2ccc(C)cc2)cc(-c2ccccc2S(N)(=O)=O)n1 [Example 33]
Sort (3 compounds) by IC50: min first. Record the ranking as a list of labels in the requested order. I, III, II
(I: 10.9 nM, III: 508 nM, II: 6000 nM)

###

- assayed_system: human IDO1 (Homo sapiens)
- procedure_text: IDO inhibition assay in HEK293 cells stably expressing human IDO1 (kynurenine production, Ehrlich reagent, absorbance 490 nm)
- condition_details: 20 hours incubation with compound, 500 nM reference standard = 100% inhibition, read-out: IDO1 HEK Human IC50
- Procedure: HEK293 cells were transfected with a pCDNA-based mammalian expression vector harboring human IDO1 cDNA (NM 002164.2) by electroporation. They were cultured in medium (DMEM with 10% FBS) containing 1 mg/ml G418 for two weeks. […] The compound treatments were stopped by adding trichloroacetic acid (Sigma-Aldrich) to a final concentration at 0.2%. […] The absorbance at 490 nm was measured on Envision plate reader. […]
pIC50: −log10 of the molar value. Where a name gives a salt, the structure may show the parent alone.
readout_label: pIC50

>>> df
                                   molecule  readout_label  value_observed
0  CCCN(Cc1ccccc1)c1cc(NC(=O)Cc2ccc(C)cc2)cc(-c2ccccc2C(N)=O)n1          pIC50            6.21
1  CCCN(Cc1ccccc1)c1cc(Nc2ccn(C)n2)cc(-c2ccccc2-c2nnn[nH]2)n1          pIC50            6.35
2  Cc1nccnc1Nc1cc(-c2ccccc2-c2nnn[nH]2)nc(N(Cc2ccccc2)CC(C)C)c1          pIC50            6.69
3  CC(C)CN(Cc1ccccc1)c1cc(Nc2ccc3c(c2)OCO3)cc(-c2ccccc2-c2nnn[nH]2)n1 [Example 57]          pIC50            8.40
4  CC(C)CN(Cc1ccccc1)c1cc(Nc2ccccc2Cl)cc(-c2ccccc2-c2nnn[nH]2)n1          pIC50            7.76
5  CC(C)CN(Cc1ccccc1)c1cc(Nc2cccc(CO)n2)cc(-c2ccccc2-c2nnn[nH]2)n1          pIC50            7.31
6  CC(C)CN(Cc1ccccc1)c1cc(NC(=O)Nc2ccc(F)cc2F)cc(-c2ccccc2-c2nnn[nH]2)n1          pIC50            6.88
7  Cc1ccc(CC(=O)Nc2cc(-c3ccccc3-c3nnn[nH]3)nc(N3CCc4ccccc4C3)c2)cc1          pIC50            6.28
8  CCCN(Cc1ccccc1)c1cc(NC(=O)Nc2ccc(C)cc2)cc(-c2ccccc2S(=O)(=O)NC(C)=O)n1          pIC50            6.59

[I] CCCN(Cc1ccccc1)c1cc(NC(=O)Cc2cnccn2)cc(-c2ccccc2-c2nn[nH]n2)n1
[II] CC(C)CN(Cc1ccccc1)c1cc(Nc2ncc(C(C)C)cn2)cc(-c2ccccc2-c2nnn[nH]2)n1
[III] Cc1ccc(CC(=O)Nc2cc(-c3ccccc3-c3nnn[nH]3)nc(N(Cc3ccccc3)CC(C)C)n2)cc1
[IV] CC(C)CN(Cc1ccccc1)c1cc(NC(=O)Nc2ccc(F)cc2)cc(-c2ccccc2-c2nnn[nH]2)n1 [Example 69, TFA]
# desc sort on pIC50 across 4 molecules Record the ranking as a list of labels in the requested order. III, IV, II, I

###

- assayed_system: human IDO1 (Homo sapiens)
- procedure_text: IDO inhibition assay in HEK293 cells stably expressing human IDO1 (kynurenine production, Ehrlich reagent, absorbance 490 nm)
- condition_details: 20 hours incubation with compound, 500 nM reference standard = 100% inhibition, read-out: IDO1 HEK Human IC50
pIC50: −log10 of the molar value. Where a name gives a salt, the structure may show the parent alone.
readout_label: pIC50

[1] CCCN(Cc1ccccc1)c1cc(NC(=O)Cc2cc(OC)cc(OC)c2)cc(-c2ccccc2-c2nn[nH]n2)n1
[2] CCCN(CC1CC1)c1cc(NC(=O)Nc2ccc(Cl)cc2Cl)cc(-c2ccccc2-c2nnn[nH]2)n1 [Example 83, TFA]
[3] CCCN(Cc1ccccc1)c1cc(NC(=O)Cc2ccc(C)nc2)cc(-c2ccccc2-c2nnn[nH]2)n1
[4] CCCN(Cc1ccccc1)c1cc(NC(=O)Nc2ccc(Cl)cc2Cl)cc(-c2cc(C)ccc2-c2nnn[nH]2)n1
Hey, quick one: sort these by pIC50, low to high? Record the ranking as a list of labels in the requested order. 3, 1, 2, 4
(3: 5.86, 1: 6.26, 2: 6.80, 4: 8.26)

[I] CCCN(Cc1ccccc1)c1cc(NC(=O)Cc2ccccc2OC)cc(-c2ccccc2-c2nn[nH]n2)n1
[II] Cc1ccc(CC(=O)Nc2cc(-c3ccccc3-c3nnn[nH]3)nc(N3CCCC3)c2)cc1
[III] CC(C)CN(Cc1ccccc1)c1nc(Nc2nc3ccccc3o2)cc(-c2ccccc2-c2nnn[nH]2)n1
Sort (3 compounds) by pIC50: min first. Record the ranking as a list of labels in the requested order. II, I, III
(II: 5.80, I: 6.52, III: 8.07)

[a] Cc1ccc(NC(=O)Nc2cc(-c3ccccc3-c3nnn[nH]3)nc(N(CC(C)C)C3CCCCC3)n2)cc1
[b] CCCN(c1cc(NC(=O)Nc2ccc(C)cc2)cc(-c2ccccc2-c2nnn[nH]2)n1)C1CCCCC1
[c] Cc1ccc(CC(=O)Nc2cc(-c3ccccc3-c3nnn[nH]3)nc(N3CCCC(C)C3)c2)cc1 (centres unmarked)
[d] CC(C)CN(Cc1ccccc1)c1cc(Nc2ncnc3[nH]ccc23)cc(-c2ccccc2-c2nnn[nH]2)n1
[e] CCCc1cnc(Nc2cc(-c3ccccc3-c3nnn[nH]3)nc(N(Cc3ccccc3)CC(C)C)c2)nc1
# desc sort on pIC50 across 5 compounds Record the ranking as a list of labels in the requested order. e, d, b, a, c
(e: 7.75, d: 6.59, b: 6.39, a: 5.98, c: 5.70)
